A collection of substances and their measured IC50
target: Neuropeptide Y receptor type 2 (Rattus norvegicus, UniProt Q9ERC0); assay: Antisecretory potency, affinity for intestinal PYY of rat jejunum by using short circuit current (SCC) method.; assay type: tissue-based
Sequence (Q9ERC0 whole entry): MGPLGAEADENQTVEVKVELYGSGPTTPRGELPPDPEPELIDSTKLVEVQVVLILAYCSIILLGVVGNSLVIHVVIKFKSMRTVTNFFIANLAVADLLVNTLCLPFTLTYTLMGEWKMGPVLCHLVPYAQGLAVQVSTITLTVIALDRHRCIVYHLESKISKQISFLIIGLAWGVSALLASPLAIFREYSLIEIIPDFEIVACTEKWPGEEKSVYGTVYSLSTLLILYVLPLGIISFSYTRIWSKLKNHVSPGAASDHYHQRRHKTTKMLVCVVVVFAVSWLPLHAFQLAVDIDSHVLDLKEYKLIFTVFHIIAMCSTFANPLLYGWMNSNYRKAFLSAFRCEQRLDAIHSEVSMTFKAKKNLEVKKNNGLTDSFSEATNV

Take a look at these entries with their results.
| Substance | IC50 |
| --- | --- |
| Ac-YSLRHFLNLVTRQRY-NH2 | 3.4 nM |
| Ac-ASLRHYWNWVTRQRY-NH2 | 1.07 nM |
| Ac-ASLRAFLNLVTRQRY-NH2 | 5.3 nM |
| Ac-ASLRHFLNLVTRQRY-NH2 | 2.3 nM |

substance Ac-ASLRHFLNLVTRQRF-NH2 , IC50 observed: 14.1 nM

###

A collection of compounds and their measured pIC50
molecular target: Neuropeptide Y receptor type 2 (Homo sapiens, UniProt P49146); assay: Affinity against Neuropeptide Y receptor Y2 in SK-N-BE2 cell line
Sequence (P49146 whole entry): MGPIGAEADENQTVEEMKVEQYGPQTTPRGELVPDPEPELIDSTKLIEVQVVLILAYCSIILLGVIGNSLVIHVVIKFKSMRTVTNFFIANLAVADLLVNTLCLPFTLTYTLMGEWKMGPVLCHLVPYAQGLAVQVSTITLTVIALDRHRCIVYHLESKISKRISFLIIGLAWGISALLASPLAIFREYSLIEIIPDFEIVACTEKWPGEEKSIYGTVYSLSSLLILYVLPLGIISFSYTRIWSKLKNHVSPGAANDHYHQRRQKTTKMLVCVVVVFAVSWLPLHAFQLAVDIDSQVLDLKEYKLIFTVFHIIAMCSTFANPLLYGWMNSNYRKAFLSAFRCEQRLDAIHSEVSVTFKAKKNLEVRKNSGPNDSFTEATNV
*1 amine or outer side, *2 acyl side, *3 side chain or, on linkers, in order; H or OH if unused. Where a SMILES comes first, the peptide text is derived from it. Side-chain parts run from the residue outwards. [ ]: non-standard residue; d: D form. X3 = CC(C)C[C@@H](CN([C@@H](CCCNC(=N)N)C(=O)[*:2])[*:1])N[*:3]; Dip = N[C@H](C(=O)O)C(c1ccccc1)c1ccccc1; 3Thi = N[C@@H](Cc1ccsc1)C(=O)O
// scale note: pIC50 = -log10(conc_M); give the bare number

compound CC(=O)N[C@@H](C)C(=O)N[C@@H](CO)C(=O)N[C@@H](CC(C)C)C(=O)N[C@@H](CCCNC(=N)N)C(=O)N[C@@H](Cc1cnc[nH]1)C(=O)N[C@H](C(=O)N[C@@H](CC(C)C)C(=O)N[C@@H](CC(N)=O)C(=O)N[C@@H](CC(C)C)C(=O)N[C@H](C(=O)N[C@H](C(=O)N[C@@H](CCCNC(=N)N)C(=O)N[C@@H](CCC(N)=O)C(=O)N[C@@H](CCCNC(=N)N)C(=O)N[C@@H](Cc1ccc(O)cc1)C(N)=O)[C@@H](C)O)C(C)C)C(c1ccccc1)c1ccccc1 (Ac-ASLRH[Dip]LNLVTRQRY-NH2) , pIC50 observed: 8.00

compound CC(=O)N[C@@H](C)C(=O)N[C@@H](CO)C(=O)N[C@H](CN[C@@H](CCCNC(=N)N)C(=O)N[C@@H](Cc1cnc[nH]1)C(=O)N[C@@H](Cc1ccc(O)cc1)C(=O)N[C@@H](CC(C)C)C(=O)N[C@@H](CC(N)=O)C(=O)N[C@@H](CC(C)C)C(=O)N[C@H](C(=O)N[C@H](C(=O)N[C@@H](CCCNC(=N)N)C(=O)N[C@@H](CCC(N)=O)C(=O)N[C@@H](CCCNC(=N)N)C(=O)N[C@@H](Cc1ccc(O)cc1)C(N)=O)[C@@H](C)O)C(C)C)CC(C)C (H-[X3]([Ser-Ala-Ac])HYLNLVTRQRY-NH2) , pIC50 observed: 7.23

compound CC(=O)N[C@@H](C)C(=O)N[C@@H](CO)C(=O)N[C@@H](CC(C)C)C(=O)N[C@@H](CCCN=C(N)N)C(=O)N[C@@H](Cc1c[nH]cn1)C(=O)N[C@@H](Cc1ccsc1)C(=O)N[C@@H](CC(C)C)C(=O)N[C@@H](CC(N)=O)C(=O)N[C@@H](CC(C)C)C(=O)N[C@H](C(=O)N[C@H](C(=O)N[C@@H](CCCN=C(N)N)C(=O)N[C@@H](CCC(N)=O)C(=O)N[C@@H](CCCN=C(N)N)C(=O)N[C@@H](Cc1ccc(O)cc1)C(N)=O)[C@@H](C)O)C(C)C (Ac-ASLRH[3Thi]LNLVTRQRY-NH2) , pIC50 observed: 8.58
